The reported measurements were obtained from patent US20210395344A1.

# assayed_target: S1-Fc (SARS-CoV-2, UniProt P0DTC2 16-685)
# method: phage ELISA
observation_type: ELISA fold over background (fold over background)
Give the value, in units of fold over background, as a plain number.

Here is how some binders turned out for ELISA fold over background.
binder: 1-2 (antibody, V domains shown, also called variant 1-2) VH: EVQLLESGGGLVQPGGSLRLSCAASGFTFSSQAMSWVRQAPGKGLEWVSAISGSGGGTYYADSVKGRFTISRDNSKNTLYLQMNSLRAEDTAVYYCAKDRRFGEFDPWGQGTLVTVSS VL: QSALTQPASVSGSPGQSITISCTGTSSGVGSYNLVSWYQQHPGKAPKLMIYEGIKRPSGVSNRFSGSKSGNTASLTISGLQAEDEADYYCCSYAGSSSFVVFGGGTKLTVL
measurement_unit: fold over background
quantitative_readout: 1.7

binder: 1-29 (antibody, V domains shown, also called variant 1-29) VH: EVQLLESGGGLVQPGGSLRLSCAASGFTFSSYAMYWVRQAPGKGLEWVSAISGSAGSTYYADSVKGRFTISRDNSKNTLYLQMNSLRAEDTAVYYCARDTNDFWSGYSIFDPWGQGTLVTVSS VL: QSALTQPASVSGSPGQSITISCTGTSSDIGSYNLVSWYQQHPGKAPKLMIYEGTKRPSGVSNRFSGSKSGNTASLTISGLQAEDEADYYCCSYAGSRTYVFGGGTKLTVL
measurement_unit: fold over background
quantitative_readout: 1

Consider the record given below.
Task item: Note down ELISA fold over background recorded for 1-7 (antibody, V domains shown, also called variant 1-7) VH: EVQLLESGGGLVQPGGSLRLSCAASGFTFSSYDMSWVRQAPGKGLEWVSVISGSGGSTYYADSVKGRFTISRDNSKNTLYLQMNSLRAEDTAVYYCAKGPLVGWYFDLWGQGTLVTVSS VL: QSALTQPASVSGSPGQSITISCTGTSSDFGSYNLVSWYQQHPGKAPKLMIYEGNKRPSGVSNRFSGSKSGNTASLTISGLQAEDEADYYCCSYAGSSTFVVFGGGTKLTVL
Reply: 1.7
